systemTested: Cyclin E1 (Homo sapiens, UniProt P24864+Q96SW2)
Sequence (P24864 whole entry): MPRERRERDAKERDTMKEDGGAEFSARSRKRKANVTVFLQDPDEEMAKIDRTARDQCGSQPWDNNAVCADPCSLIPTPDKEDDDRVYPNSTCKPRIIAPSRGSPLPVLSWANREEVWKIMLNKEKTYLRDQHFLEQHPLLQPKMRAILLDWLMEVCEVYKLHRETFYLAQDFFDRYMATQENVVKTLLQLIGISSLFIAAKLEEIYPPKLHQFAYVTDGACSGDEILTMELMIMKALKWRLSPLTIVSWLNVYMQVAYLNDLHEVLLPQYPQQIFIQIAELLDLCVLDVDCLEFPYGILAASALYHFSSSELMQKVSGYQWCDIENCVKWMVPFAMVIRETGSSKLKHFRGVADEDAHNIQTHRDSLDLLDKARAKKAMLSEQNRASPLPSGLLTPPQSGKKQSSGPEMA
Sequence (Q96SW2 whole entry): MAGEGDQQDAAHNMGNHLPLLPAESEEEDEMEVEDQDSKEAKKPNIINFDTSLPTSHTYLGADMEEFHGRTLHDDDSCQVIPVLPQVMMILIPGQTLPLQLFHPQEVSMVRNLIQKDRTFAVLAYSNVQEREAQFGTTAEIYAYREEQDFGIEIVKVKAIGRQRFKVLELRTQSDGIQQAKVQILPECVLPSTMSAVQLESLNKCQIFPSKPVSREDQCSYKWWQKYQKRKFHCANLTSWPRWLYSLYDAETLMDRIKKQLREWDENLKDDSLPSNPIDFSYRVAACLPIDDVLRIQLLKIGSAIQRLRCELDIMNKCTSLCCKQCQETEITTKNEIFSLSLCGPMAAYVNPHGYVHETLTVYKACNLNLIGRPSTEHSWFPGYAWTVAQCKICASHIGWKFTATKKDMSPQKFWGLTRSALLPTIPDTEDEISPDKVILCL
Sequence (Q16531 whole entry partner): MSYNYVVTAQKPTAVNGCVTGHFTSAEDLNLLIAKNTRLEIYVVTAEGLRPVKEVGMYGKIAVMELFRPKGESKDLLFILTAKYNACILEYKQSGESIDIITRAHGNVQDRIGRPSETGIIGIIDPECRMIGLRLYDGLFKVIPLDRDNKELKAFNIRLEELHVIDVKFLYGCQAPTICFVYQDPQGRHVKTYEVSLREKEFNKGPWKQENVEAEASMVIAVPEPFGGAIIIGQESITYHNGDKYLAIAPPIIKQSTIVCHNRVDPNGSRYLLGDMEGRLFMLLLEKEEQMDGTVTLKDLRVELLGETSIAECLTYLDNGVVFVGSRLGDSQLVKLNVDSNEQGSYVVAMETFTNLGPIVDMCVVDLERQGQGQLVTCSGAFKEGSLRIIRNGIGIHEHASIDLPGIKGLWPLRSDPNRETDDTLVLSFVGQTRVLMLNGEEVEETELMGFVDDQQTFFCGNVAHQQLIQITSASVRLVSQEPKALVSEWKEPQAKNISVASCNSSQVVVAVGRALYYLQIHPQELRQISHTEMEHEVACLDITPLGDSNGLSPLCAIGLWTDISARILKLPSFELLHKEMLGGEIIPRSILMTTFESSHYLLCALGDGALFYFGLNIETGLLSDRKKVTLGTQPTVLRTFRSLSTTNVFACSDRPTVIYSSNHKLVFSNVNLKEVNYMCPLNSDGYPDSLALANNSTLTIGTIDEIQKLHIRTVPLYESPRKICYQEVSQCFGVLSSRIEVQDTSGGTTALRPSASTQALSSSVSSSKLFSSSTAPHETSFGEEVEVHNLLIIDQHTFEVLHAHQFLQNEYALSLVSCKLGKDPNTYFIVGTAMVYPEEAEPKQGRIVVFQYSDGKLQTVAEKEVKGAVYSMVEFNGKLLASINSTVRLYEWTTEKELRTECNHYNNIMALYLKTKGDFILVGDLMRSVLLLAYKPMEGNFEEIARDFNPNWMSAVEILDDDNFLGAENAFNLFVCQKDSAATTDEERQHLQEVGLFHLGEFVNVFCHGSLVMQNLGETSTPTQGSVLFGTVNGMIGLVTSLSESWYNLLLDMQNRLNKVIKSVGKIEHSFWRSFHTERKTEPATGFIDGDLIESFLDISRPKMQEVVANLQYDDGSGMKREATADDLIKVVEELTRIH
experimentDescription: Cyclin E1 Cellular Degradation Assay (MSD)
Format: cell-based
Design: endogenous in cells; host or cells: OVCAR3
details: selectivity for degradation of Cyclin E1 over GSPT1
readoutType: Ratio of GSPT1 DC50/Cyclin E1 DC50

- COc1c(COC(=O)Nc2ccc(Cc3cccc(F)c3)cc2F)ccc2c1C(=O)N(C1CCC(=O)NC1=O)C2 (centres unmarked): >146

Request: For the compound shown here, COc1c(COC(=O)Nc2ccc(Oc3ccc(Cl)c(Cl)c3)cc2F)ccc2c1C(=O)N(C1CCC(=O)NC1=O)C2 (centres unmarked) , give the reported Ratio of GSPT1 DC50/Cyclin E1 DC50.
Response: >135

Request: Further, for COc1c(COC(=O)Nc2ccc(Oc3ccc(F)c(Cl)c3)cc2C)ccc2c1C(=O)N(C1CCC(=O)NC1=O)C2 (centres unmarked) ?
Response: >103

Request: Further, for CC(C)Oc1c(COC(=O)Nc2ccc(Oc3ccccc3F)cc2)ccc2c1C(=O)N(C1CCC(=O)NC1=O)C2 (centres unmarked) ?
Response: >263

Request: Further, for COc1c(COC(=O)Nc2ccc(Oc3ccc(Cl)c(F)c3)cc2F)ccc2c1C(=O)N(C1CCC(=O)NC1=O)C2 (centres unmarked) ?
Response: >63

Request: Further, for O=C1CCC(N2Cc3ccc(COC(=O)Nc4ccc(Oc5ccc(F)c(F)c5)cc4)c(OC4CCC4)c3C2=O)C(=O)N1 (centres unmarked) ?
Response: >100

Request: Further, for COc1c(COC(=O)Nc2ccc(Oc3ccc(F)cc3)cc2)ccc2c1C(=O)N(C1CCC(=O)NC1=O)C2 (centres unmarked) ?
Response: >149

Request: Further, for CC(C)COc1c(COC(=O)Nc2ccc(Oc3ccc(F)c(F)c3)cc2)ccc2c1C(=O)N(C1CCC(=O)NC1=O)C2 (centres unmarked) ?
Response: >81

====

systemTested: Cyclin E1 (Homo sapiens, UniProt P24864+Q96SW2)
experimentDescription: Cyclin E1 Cellular Degradation Assay (MSD)
Assay type: cell-based
Parameters: endogenous in cells; host or cells: OVCAR3
details: Cyclin E1 cellular degradation
readoutType: DC50 (nM)

Known DC50 results, listed for orientation:
• COc1cc(Oc2ccccc2)ccc1NC(=O)OCc1ccc2c(c1OC)C(=O)N(C1CCC(=O)NC1=O)C2 (stereo not shown) = 338
• COc1c(COC(=O)Nc2ccc(Oc3cc(F)c(F)cc3F)cc2)ccc2c1C(=O)N(C1CCC(=O)NC1=O)C2 (stereo not shown) = 273

A. COc1c(COC(=O)Nc2ccc(Oc3ccc(F)c(C)c3)cc2C)ccc2c1C(=O)N(C1CCC(=O)NC1=O)C2 (stereo not shown)
B. COc1c(COC(=O)Nc2ccc(Oc3cccc(F)c3Cl)cc2)ccc2c1C(=O)N(C1CCC(=O)NC1=O)C2 (stereo not shown)
Request: Kindly identify which of A and B has the larger recorded DC50 value. Answer by stating the label of the chosen item.
Response: A
(A: 327 nM, B: 95 nM)

====

systemTested: GSPT1 (Homo sapiens, UniProt P15170+Q96SW2)
Sequence (P15170 whole entry, one chain of several): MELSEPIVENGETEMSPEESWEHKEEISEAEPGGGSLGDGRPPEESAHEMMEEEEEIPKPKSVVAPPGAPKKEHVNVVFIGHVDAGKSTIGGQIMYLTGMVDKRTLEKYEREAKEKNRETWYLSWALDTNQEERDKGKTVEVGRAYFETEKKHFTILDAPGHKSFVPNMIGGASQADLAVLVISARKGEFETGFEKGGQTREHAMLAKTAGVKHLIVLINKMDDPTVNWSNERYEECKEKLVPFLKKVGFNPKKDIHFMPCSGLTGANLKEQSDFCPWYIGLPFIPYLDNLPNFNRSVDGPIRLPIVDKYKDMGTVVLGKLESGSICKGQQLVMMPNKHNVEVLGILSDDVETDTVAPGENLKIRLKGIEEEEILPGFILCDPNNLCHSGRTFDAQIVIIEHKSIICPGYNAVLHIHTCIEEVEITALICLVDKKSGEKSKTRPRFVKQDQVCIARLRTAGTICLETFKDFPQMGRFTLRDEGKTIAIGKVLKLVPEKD
experimentDescription: GSPT1 Cellular Degradation Assay (DF15-GSPT1-ePL)
Format: cell-based
Design: expressed in transfected cells
details: DF15-GSPT1-ePL cells, 20 hours
readoutType: Dmax (%)

Known Dmax results, listed for orientation:
• O=C1CCC(N2Cc3ccc(COC(=O)Nc4ccc(Oc5ccccc5F)cc4)c(Oc4ccccc4)c3C2=O)C(=O)N1 (stereo not shown) = 0
• COc1c(COC(=O)Nc2ccc(Oc3cc(Cl)cc(Cl)c3)cc2F)ccc2c1C(=O)N(C1CCC(=O)NC1=O)C2 (stereo not shown) = 24
• COc1c(COC(=O)Nc2ccc(Oc3ccccc3C3CC3)cc2)ccc2c1C(=O)N(C1CCC(=O)NC1=O)C2 (stereo not shown) = 39
• CC(C)(O)COc1c(COC(=O)Nc2ccc(Oc3ccc(F)cc3F)cc2F)ccc2c1C(=O)N(C1CCC(=O)NC1=O)C2 (stereo not shown) = 7
• O=C1CCC(N2Cc3ccc(COC(=O)Nc4ccc(Oc5ccc(F)cc5Cl)cc4)c(Oc4ccccc4)c3C2=O)C(=O)N1 (stereo not shown) = 9

A. COc1c(COC(=O)Nc2ccc(Oc3cc(F)c(F)cc3C)cc2C)ccc2c1C(=O)N(C1CCC(=O)NC1=O)C2 (stereo not shown)
B. O=C1CCC(N2Cc3ccc(COC(=O)Nc4ccc(Oc5ccc(F)c(F)c5)cc4F)c(O[C@@H]4CCCOC4)c3C2=O)C(=O)N1 (stereo partly shown)
Request: Parameter metric = Dmax. Return the lower-valued option from A and B . Answer by stating the label of the chosen item.
Response: B
(B: 8%, A: 37%)
